Target: COMT (Homo sapiens)
Construct: made in house; host or cells: Escherichia coli DH5αF′Iq
Test: Assay of COMT activity, purified recombinant His-COMT, methylation of catechol estrogens
Assay type: biochemical
Conditions: substrate 2-100 μM

- molecule: "C[C@]12CC[C@@H]3c4ccc(O)c(O)c4CC[C@H]3[C@@H]1CCC2=O [4-OHE1]"
  system_name: "COMT (Homo sapiens)"
  pattern of rates of methylation: "sigmoid curve pattern"
- molecule: "C[C@]12CC[C@@H]3c4ccc(O)c(O)c4CC[C@H]3[C@@H]1CC[C@@H]2O [4-OHE2]"
  system_name: "COMT (Homo sapiens)"
  pattern of rates of methylation: "sigmoid curve pattern"

###

Target: COMT (Homo sapiens, UniProt P21964)
Construct: made in house; host or cells: Escherichia coli DH5αF′Iq
Sequence (P21964 51-271): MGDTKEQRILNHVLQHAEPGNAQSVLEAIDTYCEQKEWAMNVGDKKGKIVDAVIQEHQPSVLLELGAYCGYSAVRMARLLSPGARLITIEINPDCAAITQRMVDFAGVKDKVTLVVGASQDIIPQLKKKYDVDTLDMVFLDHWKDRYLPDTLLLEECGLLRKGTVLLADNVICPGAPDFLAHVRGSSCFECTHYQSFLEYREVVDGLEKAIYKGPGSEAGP
Assay: Assay of COMT activity, purified recombinant His-COMT, methylation of catechol estrogens
Type: biochemical
Details: formation of the named product; in min-1 (unit assumed)
We use 3 as the dividing line for kcat: on or above the line is t, below is f.

- smiles_repr: "COc1c(O)ccc2c1CC[C@@H]1[C@@H]2CC[C@]2(C)C(=O)CC[C@@H]12"
  qualitative_label: "t"
- smiles_repr: "COc1cc2c(cc1O)[C@H]1CC[C@]3(C)[C@@H](O)CC[C@H]3[C@@H]1CC2"
  qualitative_label: "f"
- smiles_repr: "COc1cc2c(cc1O)[C@H]1CC[C@]3(C)C(=O)CC[C@H]3[C@@H]1CC2"
  qualitative_label: "f"
- smiles_repr: "COc1cc2c(cc1O)CC[C@@H]1[C@@H]2CC[C@]2(C)[C@@H](O)CC[C@@H]12"
  qualitative_label: "t"
- smiles_repr: "COc1c(O)ccc2c1CC[C@@H]1[C@@H]2CC[C@]2(C)[C@@H](O)CC[C@@H]12"
  qualitative_label: "t"
- smiles_repr: "COc1cc2c(cc1O)CC[C@@H]1[C@@H]2CC[C@]2(C)C(=O)CC[C@@H]12"
  qualitative_label: "t"

###

Target: COMT (Homo sapiens)
Construct: made in house; host or cells: Escherichia coli DH5αF′Iq
Test: Assay of COMT activity, purified recombinant His-COMT, methylation of catechol estrogens
Type: biochemical
Details: formation of the named product from its catechol estrogen; recombinant His-COMT, 200 μM SAM, 10 min at 37° C.
Listed here are compounds together with their documented Km.
value_kind: Km (µM)

- smiles_repr: "COc1cc2c(cc1O)CC[C@@H]1[C@@H]2CC[C@]2(C)[C@@H](O)CC[C@@H]12"
  assay_value: 108
- smiles_repr: "COc1c(O)ccc2c1CC[C@@H]1[C@@H]2CC[C@]2(C)C(=O)CC[C@@H]12"
  assay_value: 53
- smiles_repr: "COc1cc2c(cc1O)[C@H]1CC[C@]3(C)[C@@H](O)CC[C@H]3[C@@H]1CC2"
  assay_value: 51
- smiles_repr: "COc1c(O)ccc2c1CC[C@@H]1[C@@H]2CC[C@]2(C)[C@@H](O)CC[C@@H]12"
  assay_value: 24
- smiles_repr: "COc1cc2c(cc1O)[C@H]1CC[C@]3(C)C(=O)CC[C@H]3[C@@H]1CC2"
  assay_value: 73
- smiles_repr: "COc1cc2c(cc1O)CC[C@@H]1[C@@H]2CC[C@]2(C)C(=O)CC[C@@H]12"
  assay_value: 74

FYI, the data here is from patent US20080076129A1.
